Data origin, for the record: ChEMBL document CHEMBL1152869

- assayed-target: Cell division protein FtsZ (Staphylococcus aureus)
- Sequence (P0A031 whole entry): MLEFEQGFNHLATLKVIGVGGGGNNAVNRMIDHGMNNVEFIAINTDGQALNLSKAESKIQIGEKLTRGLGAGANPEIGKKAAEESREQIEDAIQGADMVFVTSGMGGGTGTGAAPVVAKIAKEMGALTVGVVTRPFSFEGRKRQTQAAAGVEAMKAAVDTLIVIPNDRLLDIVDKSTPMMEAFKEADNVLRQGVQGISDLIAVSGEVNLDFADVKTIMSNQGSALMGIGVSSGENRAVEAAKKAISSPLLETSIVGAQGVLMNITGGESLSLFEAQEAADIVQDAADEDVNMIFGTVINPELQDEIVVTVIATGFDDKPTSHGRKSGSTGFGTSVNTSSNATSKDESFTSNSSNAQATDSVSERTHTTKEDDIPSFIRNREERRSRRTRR
- method-description: Inhibition of Staphylococcus aureus FtsZ GTPase activity

>  <smiles-str>
NC(=O)c1c(F)ccc(OCc2nc3cc(Cl)cnc3s2)c1F

>  <quantity-unit>
nM

>  <IC50>
155

$$$$
